# Test system: GlyT2 (Rattus norvegicus, UniProt P58295)
# Construct: expressed in transfected cells
# Sequence (P58295 1-799): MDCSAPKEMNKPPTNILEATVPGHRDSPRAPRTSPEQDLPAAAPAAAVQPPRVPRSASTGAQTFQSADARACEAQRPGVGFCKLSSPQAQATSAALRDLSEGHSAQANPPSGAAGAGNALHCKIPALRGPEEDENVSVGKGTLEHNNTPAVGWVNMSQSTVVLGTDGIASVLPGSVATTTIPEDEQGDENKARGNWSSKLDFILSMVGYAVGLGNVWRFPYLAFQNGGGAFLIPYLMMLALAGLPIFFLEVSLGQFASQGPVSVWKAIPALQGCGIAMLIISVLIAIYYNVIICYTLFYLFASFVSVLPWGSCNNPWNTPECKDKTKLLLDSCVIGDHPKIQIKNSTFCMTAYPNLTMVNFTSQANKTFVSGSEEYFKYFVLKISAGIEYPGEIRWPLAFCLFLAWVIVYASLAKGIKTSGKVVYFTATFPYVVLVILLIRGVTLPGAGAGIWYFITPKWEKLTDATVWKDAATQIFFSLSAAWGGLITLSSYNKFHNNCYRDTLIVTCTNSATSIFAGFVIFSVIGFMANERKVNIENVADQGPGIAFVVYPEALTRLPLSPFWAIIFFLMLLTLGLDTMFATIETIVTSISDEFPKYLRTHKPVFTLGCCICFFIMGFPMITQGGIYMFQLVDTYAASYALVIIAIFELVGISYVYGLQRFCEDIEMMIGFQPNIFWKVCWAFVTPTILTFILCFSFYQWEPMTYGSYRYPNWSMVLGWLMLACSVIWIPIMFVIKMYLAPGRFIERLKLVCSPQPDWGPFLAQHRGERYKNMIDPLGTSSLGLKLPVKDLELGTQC
# Test method notes: FLIPR membrane potential assay for GlyT2 target activity (T-rex-293-rGlyT2 cells)
# Assay type: cell-based
# Condition label: read-out: GlyT2 % inhibition
Some compounds, each annotated with its measured inhibition at 10 µM.
Property label: inhibition at 10 µM (%)

{"columns": ["Compound", "Test system", "Property label", "Numeric readout"],
 "data": [
  ["CN(C)C1(CNC(=O)c2ccc(OCc3ccccc3)cc2)CCOCC1", "GlyT2 (Rattus norvegicus, UniProt P58295)", "inhibition at 10 µM", 108],
  ["Cc1cc(C(=O)NCC(c2ccccc2)N(C)C)cc(C)c1OCc1ccccc1 (centres unmarked)", "GlyT2 (Rattus norvegicus, UniProt P58295)", "inhibition at 10 µM", 113],
  ["CN1CCN(C2(CNC(=O)c3ccc(OCc4ccccc4)cc3)CCCCC2)CC1", "GlyT2 (Rattus norvegicus, UniProt P58295)", "inhibition at 10 µM", 83.9],
  ["CCCCOc1c(OC)cc(C(=O)NCC2(N(C)C)CCOCC2)cc1OC", "GlyT2 (Rattus norvegicus, UniProt P58295)", "inhibition at 10 µM", 101],
  ["CN1CCN(C2(CNC(=O)c3ccc(OCc4ccccc4)cc3)CCOCC2)CC1", "GlyT2 (Rattus norvegicus, UniProt P58295)", "inhibition at 10 µM", 59.1],
  ["Cc1cc(C(=O)NCC2(N(C)C)CCC(F)(F)CC2)cc(C)c1OCc1ccccc1", "GlyT2 (Rattus norvegicus, UniProt P58295)", "inhibition at 10 µM", 102],
  ["COc1cc(C(=O)NCC(c2ccccc2)N(C)C)cc(OC)c1OCc1ccccc1 (centres unmarked)", "GlyT2 (Rattus norvegicus, UniProt P58295)", "inhibition at 10 µM", 103],
  ["CCCCOc1c(OC)cc(C(=O)NCC(c2ccccc2)N(C)C)cc1OC (centres unmarked)", "GlyT2 (Rattus norvegicus, UniProt P58295)", "inhibition at 10 µM", 105],
  ["O=C(NCC(c1ccccc1)N1CCOCC1)c1ccc(OCc2ccccc2)cc1 (centres unmarked)", "GlyT2 (Rattus norvegicus, UniProt P58295)", "inhibition at 10 µM", 45.3],
  ["O=C(NCC1(N2CCOCC2)CCOCC1)c1ccc(OCc2ccccc2)cc1", "GlyT2 (Rattus norvegicus, UniProt P58295)", "inhibition at 10 µM", 50.6],
  ["COc1cc(C(=O)NCC2(N(C)C)CCCCC2)cc(OC)c1OCc1ccccc1", "GlyT2 (Rattus norvegicus, UniProt P58295)", "inhibition at 10 µM", 100],
  ["COc1cc(C(=O)NCC(c2ccccc2)N2CCOCC2)cc(OC)c1OCc1ccccc1 (centres unmarked)", "GlyT2 (Rattus norvegicus, UniProt P58295)", "inhibition at 10 µM", 76.8],
  ["Cc1cc(C(=O)NCC2(N3CCN(C)CC3)CCCCC2)cc(C)c1OCc1ccccc1", "GlyT2 (Rattus norvegicus, UniProt P58295)", "inhibition at 10 µM", 112],
  ["CN(C)C(CNC(=O)c1ccc(OCc2ccccc2)cc1)c1ccccc1 (centres unmarked)", "GlyT2 (Rattus norvegicus, UniProt P58295)", "inhibition at 10 µM", 110],
  ["COc1cc(C(=O)NCC2(N(C)C)CCC(F)(F)CC2)cc(OC)c1OCc1ccccc1", "GlyT2 (Rattus norvegicus, UniProt P58295)", "inhibition at 10 µM", 109],
  ["COc1cc(C(=O)NCC2(N3CCN(C)CC3)CCOCC2)cc(OC)c1OCc1ccccc1", "GlyT2 (Rattus norvegicus, UniProt P58295)", "inhibition at 10 µM", 78.8],
  ["CCCCOc1c(C)cc(C(=O)NCC(c2ccccc2)N(C)C)cc1C (centres unmarked)", "GlyT2 (Rattus norvegicus, UniProt P58295)", "inhibition at 10 µM", 101],
  ["COc1cc(C(=O)NCC2(N(C)C)CCOCC2)cc(OC)c1OCc1ccccc1", "GlyT2 (Rattus norvegicus, UniProt P58295)", "inhibition at 10 µM", 103],
  ["COc1cc(C(=O)NCC2(N3CCOCC3)CCOCC2)cc(OC)c1OCc1ccccc1", "GlyT2 (Rattus norvegicus, UniProt P58295)", "inhibition at 10 µM", 73.5],
  ["CCCCOc1ccc(C(=O)NCC(c2ccccc2)N(C)C)cc1 (centres unmarked)", "GlyT2 (Rattus norvegicus, UniProt P58295)", "inhibition at 10 µM", 76.6]
]}

====

# Test system: 5HT2A (Homo sapiens, UniProt P28223)
# Sequence (P28223 whole entry, species assumed): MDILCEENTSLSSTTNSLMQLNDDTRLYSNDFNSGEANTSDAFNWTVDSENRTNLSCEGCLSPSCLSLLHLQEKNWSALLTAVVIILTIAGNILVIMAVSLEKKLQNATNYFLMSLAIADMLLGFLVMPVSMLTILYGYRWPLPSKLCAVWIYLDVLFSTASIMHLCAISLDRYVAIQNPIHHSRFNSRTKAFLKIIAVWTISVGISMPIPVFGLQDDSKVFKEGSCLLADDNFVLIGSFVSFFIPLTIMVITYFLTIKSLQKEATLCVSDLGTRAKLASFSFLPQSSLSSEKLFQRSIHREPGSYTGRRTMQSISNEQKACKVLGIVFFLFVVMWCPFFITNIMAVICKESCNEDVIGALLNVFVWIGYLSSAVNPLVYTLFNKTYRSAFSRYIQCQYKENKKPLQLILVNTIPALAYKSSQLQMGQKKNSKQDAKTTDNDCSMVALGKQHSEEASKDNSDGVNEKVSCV
# Test method notes: FLIPR calcium assay for 5HT2A target activity (transfected HEK293 cells)
# Type: cell-based
# Condition label: HEK293, read-out: 5HT2A % inhibition
Some molecules, each annotated with its measured inhibition at 10 µM.
Property label: inhibition at 10 µM (%)

{"columns": ["Molecule", "Numeric readout"],
 "data": [
  ["CCCCOc1c(OC)cc(C(=O)NCC(c2ccccc2)N(C)C)cc1OC (centres unmarked)", 97.1],
  ["CN(C)C1(CNC(=O)c2ccc(OCc3ccccc3)cc2)CCOCC1", 96.1],
  ["COc1cc(C(=O)NCC2(N(C)C)CCCCC2)cc(OC)c1OCc1ccccc1", 99.8],
  ["COc1cc(C(=O)NCC2(N(C)C)CCOCC2)cc(OC)c1OCc1ccccc1", 66.1],
  ["COc1cc(C(=O)NCCN2CCOCC2)cc(OC)c1OCc1ccccc1", 89.8]
]}

====

# Test system: GlyT2 (Rattus norvegicus)
# Construct: expressed in transfected cells
# Sequence (P58295 1-799): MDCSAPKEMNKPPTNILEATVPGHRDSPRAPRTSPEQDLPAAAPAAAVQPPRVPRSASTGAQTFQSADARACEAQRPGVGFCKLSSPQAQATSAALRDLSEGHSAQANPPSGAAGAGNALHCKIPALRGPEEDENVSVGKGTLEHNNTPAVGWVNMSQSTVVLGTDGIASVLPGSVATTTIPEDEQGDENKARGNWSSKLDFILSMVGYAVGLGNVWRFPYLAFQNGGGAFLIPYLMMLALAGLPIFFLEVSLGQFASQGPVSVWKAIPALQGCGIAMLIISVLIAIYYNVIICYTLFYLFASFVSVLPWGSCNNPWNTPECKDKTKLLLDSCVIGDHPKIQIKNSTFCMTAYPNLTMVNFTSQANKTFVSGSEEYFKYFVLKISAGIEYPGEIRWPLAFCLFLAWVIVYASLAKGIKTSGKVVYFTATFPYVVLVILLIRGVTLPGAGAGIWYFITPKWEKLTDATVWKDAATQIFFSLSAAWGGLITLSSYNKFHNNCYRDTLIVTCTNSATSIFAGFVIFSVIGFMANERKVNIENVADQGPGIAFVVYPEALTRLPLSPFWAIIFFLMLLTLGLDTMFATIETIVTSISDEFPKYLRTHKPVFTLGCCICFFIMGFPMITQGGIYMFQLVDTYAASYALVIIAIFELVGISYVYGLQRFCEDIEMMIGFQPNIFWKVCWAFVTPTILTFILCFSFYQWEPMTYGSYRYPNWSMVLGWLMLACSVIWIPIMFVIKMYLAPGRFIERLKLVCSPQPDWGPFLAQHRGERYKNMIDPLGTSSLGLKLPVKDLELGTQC
# Test method notes: FLIPR membrane potential assay for GlyT2 target activity (T-rex-293-rGlyT2 cells)
# Type: cell-based
# Condition label: 10 uM compound, then glycine; relative to ORG25543 (500 nM) defined as 100%; read-out: GlyT2 % inhibition
# Experimental: GlyT2 (Glycine transporter type 2) is an electrogenic carrier associated with Na^+/Cl^− ion transportation, primarily distributed around the spinal cord part, and has an important role in the transfer of a pain signal in the spinal cord. In order to identify the fact that the novel compound of the present invention has GlyT2 targeting activity, a membrane potential assay was performed. […]
Some compounds, each annotated with its measured inhibition at 10 µM.
Property label: inhibition at 10 µM

{"columns": ["Compound", "Result"],
 "data": [
  ["COc1cc(C(=O)NCC2(NCc3ccccc3)CCOCC2)cc(OC)c1OCc1ccccc1", "79%"],
  ["CCCCOc1c(OC)cc(C(=O)NC[C@H]2CCCN2CC)cc1OC", "46%"],
  ["COc1cc(C(=O)NCC2CCCCN2C)cc(OC)c1OCc1ccccc1 (centres unmarked)", "117%"],
  ["CCN(C)C1(CNC(=O)c2cc(OC)c(OCc3ccccc3)c(OC)c2)CC=C(F)CC1 (centres unmarked)", "117%"],
  ["COc1cc(C(=O)NCC2(N(C)C)CC=C(F)CC2)cc(OC)c1OCc1ccccc1 (centres unmarked)", "87.9%"]
]}
